assay: reversed-phase LC retention time (C18, 15 min MeOH gradient); higher = more hydrophobic / later elution; conditions: ionization mode: ESI-; ion species: [M-H]-
measurement-kind: reversed-phase LC retention time (min)

Check out these entries, answers already filled in.
compound	reversed-phase LC retention time [min]
O=C(O)c1ccccc1C(=O)OCc1ccccc1 [Monobenzyl phthalate]	10.7
CCCSc1ccc2[nH]c(NC(=O)OC)nc2c1 [Albendazole]	14.2
Cc1ccc(-c2cc(C(F)(F)F)nn2-c2ccc(S(N)(=O)=O)cc2)cc1 [Celecoxib]	15.5

(a) c1ccc2c(c1)[nH]c1ccncc12 [5-Carboline]
(b) NC(=O)c1c(Cl)c(Cl)cc(C(=O)O)c1Cl
(c) CC(C)NCC(O)c1ccc(NS(C)(=O)=O)cc1 (stereo not given) [Sotalol]
(d) Nc1ccc(/C=C/c2ccc(N)cc2S(=O)(=O)O)c(S(=O)(=O)O)c1 [4,4'-Diaminostilbene-2,2'-disulfonic acid]
// query hey, can you rank those compounds up there by reversed-phase LC retention time? biggest number first please Output spec: a listing of the labels in the requested order.
// result a, c, b, d
(a: 11.6 min, c: 7.58 min, b: 4.88 min, d: 0.97 min)

(a) COc1cc(C2c3cc4c(cc3C(OC3OC5COC(C)OC5C(O)C3O)C3COC(=O)C23)OCO4)cc(OC)c1O (stereo not given) [Etoposide_1]
(b) O=C(O)c1ccc(Cl)cc1Cl [2,4-Dichlorobenzoic acid]
// query Lower value of reversed-phase LC retention time belongs to which: a or b ? Returns: label corresponding to the selected item.
// result b
(b: 6.78 min, a: 11.9 min)

----------
experiment: collision cross section (TIMS, N2 drift gas) of the primary ion; higher = larger gas-phase ion size; details: ionization mode: ESI+; ion species: [M+H]+
measurement-kind: collision cross section (Å²)

Previously resolved entries follow.
molecule	units-symbol	collision cross section
COc1c(C)c2c(c(O)c1C/C=C(\C)CCC(=O)O)C(=O)OC2	Å²	169.04
CCCCC(C#N)(Cn1cncn1)c1ccc(Cl)cc1 (centres undefined)	Å²	175
CN1CCN2c3ncccc3Cc3ccccc3C2C1 (centres undefined)	Å²	160.18

(P) CCCCC(CC)COC(=O)c1ccc(Nc2nc(Nc3ccc(C(=O)OCC(CC)CCCC)cc3)nc(Nc3ccc(C(=O)OCC(CC)CCCC)cc3)n2)cc1 (centres undefined)
(Q) O=S(=O)(O)c1nc2ccccc2s1
// query Could you determine which record has the numerically smaller collision cross section? Candidates: P and Q // caller expects the label of the chosen entry
// result Q
(Q: 141.34 Å², P: 282.62 Å²)

----------
assay: reversed-phase LC retention time (C18, 15 min MeOH gradient); higher = more hydrophobic / later elution; settings: ionization mode: ESI+; ion species: [M+H]+
measurement-kind: reversed-phase LC retention time (min)

compound	measurement-kind	number
O=S(=O)(O)c1nc2ccccc2s1 [2-Benzothiazolesulfonic acid]	reversed-phase LC retention time	7.62
CC(CCOC(=O)c1ccccc1C(=O)OCCC(C)CC(C)(C)C)CC(C)(C)C (configuration not stated) [Di-isononyl phthalate]	reversed-phase LC retention time	19.6
CC(CCl)OP(=O)(OC(C)CCl)OC(C)CCl (configuration not stated) [Tris(1-chloro-2-propyl)phosphate]	reversed-phase LC retention time	14.3
Nc1nnc(-c2cccc(Cl)c2Cl)c(N)n1 [Lamotrigine]	reversed-phase LC retention time	9.33
CC(C)Nc1ccc(Nc2ccccc2)cc1 [N-isopropyl-N-phenyl-p-phenylenediamine]	reversed-phase LC retention time	8.47
O=C(NC(=O)c1c(F)cccc1F)Nc1ccc(Oc2ccc(C(F)(F)F)cc2Cl)cc1F [Flufenoxuron]	reversed-phase LC retention time	17.4
CCCN(CCC)C(=O)SCc1ccccc1 [Prosulfocarb]	reversed-phase LC retention time	16.4
COC(=O)c1ccc(CNS(C)(=O)=O)cc1S(=O)(=O)NC(=O)Nc1nc(OC)cc(OC)n1 [Mesosulfuron-methyl]	reversed-phase LC retention time	12.7

(a) CN1CCN2c3ncccc3Cc3ccccc3C2C1 (configuration not stated) [Mirtazapine]
(b) O=S(=O)(O)CCNC1CCCCC1 [2-(Cyclohexylamino)-ethansulfonic acid]
(c) C[C@H]1[C@H](C)CC[C@]2(C(=O)O)CC[C@]3(C)C(=CC[C@@H]4[C@@]5(C)CC[C@H](O)C(C)(C)[C@@H]5CC[C@]43C)[C@H]12 [Ursolic acid]
// query Sort the compounds on reversed-phase LC retention time; start with the lowest figure. Returns: the labels listed in the requested order.
// result b, a, c
